# system.under.test: beta-lactamase class D OXA-48 (Klebsiella pneumoniae)
# Format: biochemical
# test.context: second drug alone in ultrafiltrated serum at 10 times recommended blood concentration; result expressed as meropenem concentration, theoretically zero; replicate 2
Measured [meropenem] (mg/L) Replicates 2 of individual entries
measured.endpoint: [meropenem] (mg/L) Replicates 2

>>> reported_measurement("CC(CCc1ccc(O)cc1)NCCc1ccc(O)c(O)c1 (stereo not shown) [Dobutrex]")
-0.11
>>> reported_measurement("COc1ccc(C[C@@H]2c3cc(OC)c(OC)cc3CC[N@+]2(C)CCC(=O)OCCCCCOC(=O)CC[N@@+]2(C)CCc3cc(OC)c(OC)cc3[C@H]2Cc2ccc(OC)c(OC)c2)cc1OC [Nimbex]")
-0.04
>>> reported_measurement("CN1CC[C@]23c4c5ccc(O)c4O[C@H]2[C@@H](O)C=C[C@H]3[C@H]1C5 [Morphine]")
-0.15
>>> reported_measurement("CN1C(=O)CN=C(c2ccccc2)c2cc(Cl)ccc21 [Diazepam]")
0.04

###

# system.under.test: beta-lactamase class D OXA-48 (Klebsiella pneumoniae)
# Assay type: biochemical
# test.context: second drug alone in ultrafiltrated serum at 10 times recommended blood concentration; result expressed as meropenem concentration, theoretically zero; replicate 3
Rule for this label: label 1 means [meropenem] (mg/L) Replicates 3 is less than 0.05 mg/L; label 0 means [meropenem] (mg/L) Replicates 3 is at least 0.05 mg/L.

>>> group_label("COC(=O)C1=C(C)NC(C)=C(C(=O)OCCN(C)Cc2ccccc2)C1c1cccc([N+](=O)[O-])c1 (centres unmarked)")
"label 0"
>>> group_label("NS(=O)(=O)c1cc(C(=O)O)c(NCc2ccco2)cc1Cl")
"label 1"
>>> group_label("CN1CC[C@]23c4c5ccc(O)c4O[C@H]2[C@@H](O)C=C[C@H]3[C@H]1C5")
"label 1"
>>> group_label("COc1ccc(C[C@@H]2c3cc(OC)c(OC)cc3CC[N@+]2(C)CCC(=O)OCCCCCOC(=O)CC[N@@+]2(C)CCc3cc(OC)c(OC)cc3[C@H]2Cc2ccc(OC)c(OC)c2)cc1OC")
"label 1"
>>> group_label("C[C@H]1C[C@@H]2[C@H]([C@@H](O)C[C@@]3(C)[C@H]2CC[C@]3(O)C(=O)COC(=O)CCC(=O)O)[C@@]2(C)C=CC(=O)C=C12")
"label 1"
>>> group_label("Cc1[nH]c(=O)c(C#N)cc1-c1ccncc1")
"label 0"
>>> group_label("CCCCc1oc2ccccc2c1C(=O)c1cc(I)c(OCCN(CC)CC)c(I)c1")
"label 1"

###

# System: AmpCHD beta-lactamase (class C)
# protocol.text: Screening of beta-lactamases by competition, nitrocefin as reporter substrate
# Assay type: biochemical
measured.endpoint: hydrolysis rate symbol, (Vmax/V0)-1

>>> reported_measurement("CC1(C)S[C@@H]2[C@H](NC(=O)[C@H](C(=O)O)c3ccsc3)C(=O)N2[C@H]1C(=O)O [Ticarpen ®]")
"+ (0.1-1)"
>>> reported_measurement("C[C@@H](O)[C@H]1C(=O)N2C(C(=O)O)=C(S[C@@H]3CN[C@H](C(=O)N(C)C)C3)[C@H](C)[C@H]12 [Meropenem, meropenem]")
"+ (0.1-1)"
>>> reported_measurement("Cn1nnnc1SCC1=C(C(=O)O)N2C(=O)[C@@H](NC(=O)[C@H](O)c3ccccc3)[C@H]2SC1 [Cefamandole ®, Cefamandole]")
"++ (1-10)"
>>> reported_measurement("CO/N=C(\\C(=O)N[C@@H]1C(=O)N2C(C(=O)O)=C(COC(C)=O)CS[C@H]12)c1csc(N)n1 [Cefotaxim ® Sandoz]")
"+ (0.1-1)"
>>> reported_measurement("CO/N=C(\\C(=O)N[C@@H]1C(=O)N2C(C(=O)O)=C(COC(N)=O)CS[C@H]12)c1ccco1 [Zinacef ®]")
"+ (0.1-1)"
>>> reported_measurement("Cc1onc(-c2ccccc2)c1C(=O)N[C@@H]1C(=O)N2[C@@H]1SC(C)(C)[C@@H]2C(=O)O [Penstapho ®]")
"++ (1-10)"

###

Measured [meropenem] (mg/L) Replicates 2 of individual entries
# system.under.test: beta-lactamase class D OXA-48 (Klebsiella pneumoniae, UniProt Q6XEC0)
# Sequence (Q6XEC0 23-265 limits assumed): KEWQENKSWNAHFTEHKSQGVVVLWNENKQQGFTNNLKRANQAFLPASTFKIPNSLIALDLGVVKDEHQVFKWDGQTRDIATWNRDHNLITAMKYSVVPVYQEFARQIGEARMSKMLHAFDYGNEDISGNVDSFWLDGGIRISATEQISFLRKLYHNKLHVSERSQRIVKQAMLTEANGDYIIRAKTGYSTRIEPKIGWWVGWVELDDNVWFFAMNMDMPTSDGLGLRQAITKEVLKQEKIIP
# Assay type: biochemical
# test.context: second drug alone in ultrafiltrated serum at 10 times recommended blood concentration; result expressed as meropenem concentration, theoretically zero; replicate 2
measured.endpoint: [meropenem] (mg/L) Replicates 2

>>> reported_measurement("CC[C@@H](C(N)=O)N1CCCC1=O")
-0.07
>>> reported_measurement("CCCCc1oc2ccccc2c1C(=O)c1cc(I)c(OCCN(CC)CC)c(I)c1")
-0.15
>>> reported_measurement("NS(=O)(=O)c1cc(C(=O)O)c(NCc2ccco2)cc1Cl")
-0.15
>>> reported_measurement("Cc1[nH]c(=O)c(C#N)cc1-c1ccncc1")
0.06
>>> reported_measurement("CCC1(CC)C(=O)NC(=S)NC1=O")
0.11
>>> reported_measurement("C[C@H]1C[C@@H]2[C@H]([C@@H](O)C[C@@]3(C)[C@H]2CC[C@]3(O)C(=O)COC(=O)CCC(=O)O)[C@@]2(C)C=CC(=O)C=C12")
0.02
>>> reported_measurement("NCCc1ccc(O)c(O)c1")
-0.06
>>> reported_measurement("C[C@@H](c1ncncc1F)[C@](O)(Cn1cncn1)c1ccc(F)cc1F")
-0.06
>>> reported_measurement("COC(=O)C1=C(C)NC(C)=C(C(=O)OCCN(C)Cc2ccccc2)C1c1cccc([N+](=O)[O-])c1 (stereo not drawn)")
0.00

###

# system.under.test: beta-lactamase class D OXA-48 (Klebsiella pneumoniae, UniProt Q6XEC0)
# Type: biochemical
# test.context: Meropenem 20.0 mg/L, second β-lactam 200.0 mg/L (10 times excess), replicate 2
measured.endpoint: [Meropenem] Replicate 2 (mg/L)

>>> reported_measurement("CC1(C)S[C@@H]2[C@H](NC(=O)[C@H](C(=O)O)c3ccsc3)C(=O)N2[C@H]1C(=O)O")
23.4
>>> reported_measurement("Cn1nnnc1SCC1=C(C(=O)O)N2C(=O)[C@@H](NC(=O)[C@H](O)c3ccccc3)[C@H]2SC1")
21.9
>>> reported_measurement("CC1(C)S[C@@H]2[C@H](NC(=O)[C@H](N)c3ccccc3)C(=O)N2[C@H]1C(=O)O")
20.8
>>> reported_measurement("C[C@@H](O)[C@H]1C(=O)N2C(C(=O)O)=C(S[C@@H]3CN[C@H](C(=O)N(C)C)C3)[C@H](C)[C@H]12")
20.9
>>> reported_measurement("CC(C)(O/N=C(\\C(=O)N[C@@H]1C(=O)N2C(C(=O)[O-])=C(C[n+]3ccccc3)CS[C@H]12)c1csc(N)n1)C(=O)O")
19.6

###

# system.under.test: beta-lactamase class D OXA-48 (Klebsiella pneumoniae, UniProt Q6XEC0)
# Assay type: biochemical
# test.context: second drug alone in ultrafiltrated serum at 10 times recommended blood concentration; result expressed as meropenem concentration, theoretically zero; average of three replicates
# binarize Average [meropenem]: threshold 0.01 mg/L inclusive, high side YES, low side NO

>>> group_label("C[C@]12CCC(=O)C=C1CC[C@@H]1[C@@H]2[C@@H](O)C[C@@]2(C)[C@H]1CC[C@]2(O)C(=O)COC(=O)CCC(=O)O")
"NO"
>>> group_label("CN1C(=O)CN=C(c2ccccc2)c2cc(Cl)ccc21")
"YES"
>>> group_label("CN1CC[C@]23c4c5ccc(O)c4O[C@H]2[C@@H](O)C=C[C@H]3[C@H]1C5")
"NO"
>>> group_label("COC(=O)C1=C(C)NC(C)=C(C(=O)OCCN(C)Cc2ccccc2)C1c1cccc([N+](=O)[O-])c1 (stereo not shown)")
"YES"
>>> group_label("O=C1CN=C(c2ccccc2Cl)c2cc([N+](=O)[O-])ccc2N1")
"YES"
>>> group_label("CNCC(O)c1ccc(O)c(O)c1 (stereo not shown)")
"NO"
>>> group_label("Cc1[nH]c(=O)c(C#N)cc1-c1ccncc1")
"YES"
>>> group_label("OC(Cn1cncn1)(Cn1cncn1)c1ccc(F)cc1F")
"YES"
>>> group_label("CC(CCc1ccc(O)cc1)NCCc1ccc(O)c(O)c1 (stereo not shown)")
"NO"
>>> group_label("CCC1(CC)C(=O)NC(=S)NC1=O")
"YES"
>>> group_label("CC[C@@H](C(N)=O)N1CCCC1=O")
"NO"
>>> group_label("COc1ccc(C[C@@H]2c3cc(OC)c(OC)cc3CC[N@+]2(C)CCC(=O)OCCCCCOC(=O)CC[N@@+]2(C)CCc3cc(OC)c(OC)cc3[C@H]2Cc2ccc(OC)c(OC)c2)cc1OC")
"NO"
>>> group_label("NS(=O)(=O)c1cc(C(=O)O)c(NCc2ccco2)cc1Cl")
"NO"
>>> group_label("CC(C)(C)NCC(O)c1ccc(O)c(CO)c1 (stereo not shown)")
"YES"
>>> group_label("NCCc1ccc(O)c(O)c1")
"NO"
>>> group_label("CCCCc1oc2ccccc2c1C(=O)c1cc(I)c(OCCN(CC)CC)c(I)c1")
"NO"
>>> group_label("NC[C@H](O)c1ccc(O)c(O)c1")
"NO"
